Attribution: ChEMBL document CHEMBL1146306

# Assay method text: Half life in mouse at 1 mg/kg, iv and 2 mg/kg, po
# Format: ADME, organism-based
# Cond: in vivo
Measured property: half-life (h)

[[record]]
compound = "CC(C)(C)[C@H]1CC[C@H](N(C(=O)Nc2ccc(OC(F)(F)F)cc2)C2CCc3cc(C(=O)NCCC(=O)O)ccc32)CC1 (some centres undefined)"
meas_value = 5.6

[[record]]
compound = "CC(C)(C)[C@H]1CC[C@H](N(C(=O)Nc2ccc(OC(F)(F)F)cc2)C2CCCc3cc(C(=O)Nc4nn[nH]n4)ccc32)CC1 (some centres undefined)"
meas_value = 8

[[record]]
compound = "CC(C)(C)[C@H]1CC[C@H](N(C(=O)Nc2ccc(OC(F)(F)F)cc2)C2CCCc3cc(C(=O)NCCC(=O)O)ccc32)CC1 (some centres undefined)"
meas_value = 2.5

[[record]]
compound = "CC(C)(C)[C@H]1CC[C@H](N(C(=O)Nc2ccc(OC(F)(F)F)cc2)C2CCOc3cc(C(=O)NCCC(=O)O)ccc32)CC1 (some centres undefined)"
meas_value = 3.4


----------
Here the recorded clearance is given for each entry.
# Assay method text: Plasma clearance in mouse at 1 mg/kg, iv and 2 mg/kg, po
# Assay type: ADME, organism-based
Measured property: clearance (mL/min/kg)

[[record]]
compound = "CC(C)(C)[C@H]1CC[C@H](N(C(=O)Nc2ccc(OC(F)(F)F)cc2)C2CCCc3cc(C(=O)Nc4nn[nH]n4)ccc32)CC1 (some centres undefined)"
measured_property = "clearance"
meas_value = 6.4

[[record]]
compound = "CC(C)(C)[C@H]1CC[C@H](N(C(=O)Nc2ccc(OC(F)(F)F)cc2)C2CCOc3cc(C(=O)NCCC(=O)O)ccc32)CC1 (some centres undefined)"
measured_property = "clearance"
meas_value = 13

[[record]]
compound = "CC(C)(C)[C@H]1CC[C@H](N(C(=O)Nc2ccc(OC(F)(F)F)cc2)C2CCc3cc(C(=O)NCCC(=O)O)ccc32)CC1 (some centres undefined)"
measured_property = "clearance"
meas_value = 9

[[record]]
compound = "CC(C)(C)[C@H]1CC[C@H](N(C(=O)Nc2ccc(OC(F)(F)F)cc2)C2CCCc3cc(C(=O)NCCC(=O)O)ccc32)CC1 (some centres undefined)"
measured_property = "clearance"
meas_value = 9


----------
# Target system: Glucagon receptor (Homo sapiens, UniProt P47871)
# Sequence (P47871 whole entry): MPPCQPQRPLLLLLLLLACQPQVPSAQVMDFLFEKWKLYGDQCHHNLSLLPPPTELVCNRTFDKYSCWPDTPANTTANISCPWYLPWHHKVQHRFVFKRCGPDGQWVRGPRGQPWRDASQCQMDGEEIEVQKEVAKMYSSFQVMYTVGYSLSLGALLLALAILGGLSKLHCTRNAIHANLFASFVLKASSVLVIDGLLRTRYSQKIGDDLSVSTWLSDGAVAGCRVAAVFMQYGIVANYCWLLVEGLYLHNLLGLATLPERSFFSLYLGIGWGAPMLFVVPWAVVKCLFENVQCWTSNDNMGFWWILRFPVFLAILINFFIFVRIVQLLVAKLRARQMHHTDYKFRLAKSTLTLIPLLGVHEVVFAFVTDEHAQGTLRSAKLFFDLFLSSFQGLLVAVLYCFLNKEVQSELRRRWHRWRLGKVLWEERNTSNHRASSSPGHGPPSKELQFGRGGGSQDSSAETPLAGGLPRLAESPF
# Assay method text: Antagonist activity at human glucagon receptor transfected in CHO cells assessed as inhibition of glucagon-induced cAMP accumulation
# Type: functional, cell-based
# Cond: read-out: IC50
Measured property: log10(IC50) (log10 of the value in nM)

[[record]]
compound = "CC(C)(C)[C@H]1CC[C@H](N(C(=O)Cc2ccc(OC(F)(F)F)cc2)C2CCc3cc(C(=O)Nc4nnn[nH]4)ccc32)CC1 (some centres not stated)"
target_system = "Glucagon receptor (Homo sapiens, UniProt P47871)"
meas_value = 1.83

[[record]]
compound = "CC(C)(C)[C@H]1CC[C@@H](N(C(=O)Nc2ccc(OC(F)(F)F)cc2)C2CCc3cc(C(=O)NCCC(=O)O)ccc32)CC1 (single isomer, unassigned)"
target_system = "Glucagon receptor (Homo sapiens, UniProt P47871)"
meas_value = 1.66

[[record]]
compound = "CC(C)(C)[C@H]1CC[C@H](N(C(=O)Nc2cc(C(F)(F)F)cc(C(F)(F)F)c2)C2CCc3cc(C(=O)Nc4nnn[nH]4)ccc32)CC1 (some centres not stated)"
target_system = "Glucagon receptor (Homo sapiens, UniProt P47871)"
meas_value = 1.79

[[record]]
compound = "O=C(Nc1nn[nH]n1)c1ccc2c(c1)CCC2N(C(=O)Nc1ccc(OC(F)(F)F)cc1)c1ccc(C2CCCCC2)cc1 (configuration not stated)"
target_system = "Glucagon receptor (Homo sapiens, UniProt P47871)"
meas_value = 1.93

[[record]]
compound = "CC(C)(C)[C@H]1CC[C@H](N(C(=O)Nc2cc(C(F)(F)F)cc(C(F)(F)F)c2)C2CCc3cc(C(=O)NCCC(=O)O)ccc32)CC1 (some centres not stated)"
target_system = "Glucagon receptor (Homo sapiens, UniProt P47871)"
meas_value = 1.66

[[record]]
compound = "CC(C)(C)[C@H]1CC[C@@H](N(C(=O)Nc2ccc(OC(F)(F)F)cc2)C2CCc3cc(C(=O)Nc4nn[nH]n4)ccc32)CC1 (single isomer, unassigned)"
target_system = "Glucagon receptor (Homo sapiens, UniProt P47871)"
meas_value = 1.26

[[record]]
compound = "CC(C)(C)[C@H]1CC[C@@H](N(C(=O)Nc2ccc(OC(F)(F)F)cc2)C2CCc3cc(C(=O)Nc4nn[nH]n4)ccc32)CC1 (some centres not stated)"
target_system = "Glucagon receptor (Homo sapiens, UniProt P47871)"
meas_value = 2.90

